target_entity: T1, human CLDN-18.2 (human, UniProt P56856-2 1-261)
T1 construct: whole, on cells
experimental_protocol: flow cytometry on NUGC4-CLDN-18.2 cells, 4 C 30 min, fluorescent secondary antibody
quantity_measured: EC50 (µg/mL)
Number in µg/mL, nothing else.

Worked cases, EC50 given:
binder	quantity_measured	observed_result
anti-CLDN-18.2 chimeric antibody Chi-JS012-9 (antibody, V domains shown, Human heavy chain constant region and human kappa constant region) VH: QIQLVQSGPELKKPGETVKISCKASGYTFTNYGMNWVKQAPGKGLKWMGWINTYTGESTYADDFKGRFAFSSETSARTAYLQINNLKNEDMATYFCATLGYGNSLAYWGQGTLVTVSS VL: DIVMTQYPSFLTVTTGEKVTMSCKSSQSLLNSGNQRNYLTWYQQKPGQPPKLLIYWASTRESGVPDRFAGSGSGTDFTLTISSVQAEDLAIYYCQNNYFYPFTFGSGTKLEVK	EC50	3.22
anti-CLDN-18.2 chimeric antibody Chi-JS012-27 (antibody, V domains shown, Human heavy chain constant region and human kappa constant region) VH: EVKLVESGGGLVKPGGSLKLSCAASGFTFSSYGMSWVRQTPEKRLECVATISGGDSYTYYPDSVRGRFTISRDIAKNNLYLQMSSLRSEDTALYYCARSYNGNSLPYWGQGTLVTVSS VL: DIVMTQYPSFLTVTTGEKVTMSCKSSQSLLNSGNQRNYLTWYQQKPGQPPKLLIYWASTRESGVPDRFAGSGSGTDFTLTISSVQAEDLAIYYCQNNYFYPFTFGSGTKLEVK	EC50	2.92
anti-CLDN-18.2 chimeric antibody Chi-JS012-21 (antibody, V domains shown, Human heavy chain constant region and human kappa constant region) VH: QIQLVQSGPELKKPGETVKISCKASGYTFTNYGMNWVKQAPGKGLKWMGWINTYTGESTYADDFKGRFAFSSETSARTAYLQINNLKNEGMATYFCARSYNGNSLPYWGQGTLVTVSS VL: DIVMTQYPSFLTVTTGEKVTMSCKSSQSLLNSGNQRNYLTWYQQKPGQPPKLLIYWASTRESGVPDRFAGSGSGTDFTLTISSVQAEDLAIYYCQNNYFYPFTFGSGTKLEVK	EC50	2.37

[Q] So what does the record say about EC50 for anti-CLDN-18.2 chimeric antibody Chi-JS012-10 (antibody, V domains shown, Human heavy chain constant region and human kappa constant region) VH: QIQLVQSGPELKKPGETVKISCKASGYTFTNYGMNWVKQAPGKGLKWMGWINTYTGESTYADDFKGRFAFSSETSARTAYLQINNLKNEDMATYFCATLGYGNSLAYWGQGTLVTVSS VL: DIVMTQSPSFLTVTAGEKVTMSCKSSQSLLNSGNQKNYLTWYQQKPGQPPKLLIYWASTRDSGVPDRFTGSGSGTDFTLTITSVQAEDLAVFYCQNAYFYPFTFGSGTKLEIK ?
[A] 3.19
